src = patent US20130241815A1

Test: Preparation of ink and evaluation of solubility in low polar solvents (saturated solution, absorption maximum, εC)
Type: physicochemical
Conditions: Tetradecane, saturated solution, room temperature
quantity name: Solubility (% by mass)
Note: unit % by mass is implicit; provide only the numeric part.

A selection of reference data follows.
{"molecule": "CCCCC(CC)CNc1ccc(NCC(CC)CCCC)c2c1C(=O)c1ccc(C(=O)OCCC)cc1C2=O (centres unmarked) [Illustrative Compound 4]", "Solubility / % by mass": 4.9}
{"molecule": "CCCCC(CC)CNc1ccc(NCC(CC)CCCC)c2c1C(=O)c1ccc(C(=O)OCC(C)C)cc1C2=O (centres unmarked) [Illustrative Compound 3]", "Solubility / % by mass": 4.7}
{"molecule": "CCCCC(CC)CNc1ccc(NCC(CC)CCCC)c2c1C(=O)c1ccccc1C2=O (centres unmarked) [Illustrative Compound 1]", "Solubility / % by mass": 5.7}

Consider now this further molecule.
Ask: # Solubility lookup, item CNc1ccc(Nc2ccc(C)cc2)c2c1C(=O)c1ccccc1C2=O [Comparative Compound 1, C.I. Solvent Blue 11, reference compound]
Result: 0.04
